Test system: Leishmania major
ASSAY_SUMMARY: Antileishmanial activity against Leishmania major IR-173 promastigotes assessed as inhibition of parasite growth incubated for 48 hrs by resazurin dye based assay
Format: functional, organism-based
MEASUREMENT_CONTEXT: IR-173, 48 h
RECORDED_ENDPOINT: log10 IC50 (log10 of the value in nM)
Remember, log10 of IC50, in nM.

SMILES: CCCCCc1cn(CCCCCN2C(=O)CN(/N=C/c3ccc([N+](=O)[O-])o3)C2=O)nn1
STUDY_TARGET: Leishmania major
log10 IC50: 3.03
//
SMILES: O=C1CN(/N=C/c2ccc([N+](=O)[O-])o2)C(=O)N1CCCCCCn1cc(-c2ccc(F)cc2)nn1
STUDY_TARGET: Leishmania major
log10 IC50: 2.34
//
SMILES: CCCCc1cn(CCCCCCN2C(=O)CN(/N=C/c3ccc([N+](=O)[O-])o3)C2=O)nn1
STUDY_TARGET: Leishmania major
log10 IC50: 3.08
//
SMILES: COc1ccc(-c2cn(CCCN3C(=O)CN(/N=C/c4ccc([N+](=O)[O-])o4)C3=O)nn2)cc1
STUDY_TARGET: Leishmania major
log10 IC50: 2.90
//
SMILES: CCCCCCCCc1cn(CCCN2C(=O)CN(/N=C/c3ccc([N+](=O)[O-])o3)C2=O)nn1
STUDY_TARGET: Leishmania major
log10 IC50: 2.86

Below: the item to evaluate.
log10 IC50 in this record for CCCCCCCCc1cn(CCCCCCN2C(=O)CN(/N=C/c3ccc([N+](=O)[O-])o3)C2=O)nn1 : 3.42

###

Tested on: Leishmania major
ASSAY_SUMMARY: Antileishmanial activity against Leishmania major IR-173 promastigotes assessed as inhibition of parasite growth incubated for 48 hrs by resazurin dye based assay
Format: functional, organism-based
MEASUREMENT_CONTEXT: IR-173, 48 h
Reported IC50 by item:

Some solved entries appear below for comparison.
MOLECULE: O=C1CN(/N=C/c2ccc([N+](=O)[O-])o2)C(=O)N1CCCn1cc(-c2ccc(F)cc2)nn1
IC50: 740 nM

MOLECULE: Cc1ccc(-c2cn(CCCCCCN3C(=O)CN(/N=C/c4ccc([N+](=O)[O-])o4)C3=O)nn2)cc1
IC50: 660 nM

MOLECULE: O=C1CN(/N=C/c2ccc([N+](=O)[O-])o2)C(=O)N1CCCCCCn1cc(-c2cc(C(F)(F)F)cc(C(F)(F)F)c2)nn1
IC50: 800 nM

MOLECULE: COc1ccc(-c2cn(CCCCCN3C(=O)CN(/N=C/c4ccc([N+](=O)[O-])o4)C3=O)nn2)cc1
IC50: 500 nM

MOLECULE: CCCCCCc1cn(CCCCCN2C(=O)CN(/N=C/c3ccc([N+](=O)[O-])o3)C2=O)nn1
IC50: 1500 nM

Summary for this molecule, O=C1CN(/N=C/c2ccc([N+](=O)[O-])o2)C(=O)N1 [NITROFURANTOIN] : IC50 is > 10000 nM

Memo: CCCCCc1ccc(-c2cn(CCCCCN3C(=O)CN(/N=C/c4ccc([N+](=O)[O-])o4)C3=O)nn2)cc1 , reported IC50: > 10000 nM

Notebook: CCCCc1cn(CCCCCN2C(=O)CN(/N=C/c3ccc([N+](=O)[O-])o3)C2=O)nn1 , IC50 read as 440 nM
